FYI, the data here is from paper PMC10196118.

The following compounds are listed with their measured IC50 values.
# measured on: HLA DRB1*07:01 (Homo sapiens, UniProt P01903+P01911, A100R/A102G/A103Q/D57E/D86V/E43K/F76Y/K127E/L162R/M171V/P40G/Q125H/Q99D/R33Q/R42Y/R54Q/S133A/S66F/T210M/V115G/Y107V/Y59L/Y89S)
# procedure details: biochemical
# Type: binding
# condition label: binder threshold 1,000 nM, read-out: In vitro (IC50 nM) DRB1*07:01
All answers are understood in nM, so give the number only.

CC[C@H](C)[C@H](NC(=O)[C@H](CC(=O)O)NC(=O)[C@H](CS)NC(=O)[C@H](CCSC)NC(=O)[C@@H](NC(=O)[C@@H]1CCCN1C(=O)[C@H](CC(C)C)NC(=O)[C@H](CC(N)=O)NC(=O)[C@H](Cc1ccc(O)cc1)NC(=O)[C@H](CCCNC(=N)N)NC(=O)[C@@H](N)Cc1ccc(O)cc1)[C@@H](C)O)C(=O)N[C@@H](CCCNC(=N)N)C(=O)N[C@@H](CCC(N)=O)C(=O)N[C@@H](CC(C)C)C(=O)N[C@@H](CC(C)C)C(=O)O [Peptide 92]	1840
CC[C@H](C)[C@H](NC(=O)[C@H](CCSC)NC(=O)[C@H](CCSC)NC(=O)[C@H](CO)NC(=O)[C@H](Cc1ccccc1)NC(=O)[C@H](Cc1c[nH]cn1)NC(=O)[C@H](CCCCN)NC(=O)[C@H](CCCNC(=N)N)NC(=O)[C@H](CC(C)C)NC(=O)[C@H](Cc1ccc(O)cc1)NC(=O)[C@H](C)NC(=O)[C@@H](N)Cc1ccc(O)cc1)C(=O)N[C@@H](CC(C)C)C(=O)N[C@@H](CO)C(=O)N[C@@H](CC(=O)O)C(=O)O [Peptide 150]	0.73
CC[C@H](C)[C@H](NC(=O)[C@@H]1CCCN1C(=O)[C@H](CCSC)NC(=O)[C@H](CC(C)C)NC(=O)[C@H](CC(C)C)NC(=O)[C@H](CO)NC(=O)[C@H](Cc1ccc(O)cc1)NC(=O)[C@H](Cc1ccc(O)cc1)NC(=O)[C@@H](N)CO)C(=O)N[C@@H](CC(C)C)C(=O)N[C@H](C(=O)N[C@@H](CC(C)C)C(=O)N[C@H](C(=O)N[C@@H](CCCNC(=N)N)C(=O)N[C@@H](C)C(=O)O)[C@@H](C)O)[C@@H](C)O	115

**Query** Suppose we examine the compound CC[C@H](C)[C@H](NC(=O)[C@@H](NC(=O)[C@@H]1CCCN1C(=O)[C@@H](NC(=O)[C@@H](NC(=O)[C@H](CC(N)=O)NC(=O)[C@H](CCCNC(=N)N)NC(=O)[C@H](CCCCN)NC(=O)[C@@H](NC(=O)[C@H](Cc1ccc(O)cc1)NC(=O)[C@H](C)NC(=O)[C@H](Cc1ccccc1)NC(=O)[C@H](CC(C)C)NC(=O)[C@H](C)N)[C@@H](C)O)C(C)C)[C@@H](C)CC)[C@@H](C)O)C(=O)N[C@H](C(=O)O)[C@@H](C)O ; what IC50 value has been reported?
**Result** 1.6

**Query** Suppose we examine the compound CC(C)C[C@H](NC(=O)[C@H](CCCNC(=N)N)NC(=O)[C@H](Cc1ccc(O)cc1)NC(=O)[C@H](Cc1ccccc1)NC(=O)[C@H](CCCNC(=N)N)NC(=O)[C@H](Cc1c[nH]cn1)NC(=O)[C@H](CO)NC(=O)[C@H](CC(C)C)NC(=O)[C@H](CO)NC(=O)[C@H](CS)NC(=O)[C@H](CS)NC(=O)[C@@H](NC(=O)[C@@H](NC(=O)[C@H](Cc1c[nH]cn1)NC(=O)[C@@H](N)CCCCN)[C@@H](C)O)[C@@H](C)O)C(=O)O ; what IC50 value has been reported?
**Result** 56

**Query** Suppose we examine the compound CC[C@H](C)[C@H](NC(=O)[C@@H]1CCCN1C(=O)[C@H](CCSC)NC(=O)[C@@H](N)CC(C)C)C(=O)N[C@@H](CC(C)C)C(=O)N[C@H](C(=O)N[C@@H](CC(C)C)C(=O)N[C@H](C(=O)N[C@@H](CCCNC(=N)N)C(=O)N[C@@H](C)C(=O)N[C@@H](CC(C)C)C(=O)N[C@H](C(=O)N[C@@H](C)C(=O)N[C@@H](CCC(=O)O)C(=O)N[C@@H](CO)C(=O)O)[C@@H](C)O)[C@@H](C)O)[C@@H](C)O ; what IC50 value has been reported?
**Result** 15

**Query** Suppose we examine the compound CC(C)[C@H](NC(=O)[C@H](CO)NC(=O)[C@H](CC(N)=O)NC(=O)[C@H](C)NC(=O)[C@H](Cc1ccc(O)cc1)NC(=O)[C@H](C)NC(=O)[C@@H](NC(=O)[C@@H](NC(=O)[C@H](C)NC(=O)[C@H](CC(=O)O)NC(=O)CNC(=O)[C@H](CO)NC(=O)[C@@H](N)CO)[C@@H](C)O)[C@@H](C)O)C(=O)N[C@@H](Cc1ccccc1)C(=O)N[C@@H](CC(N)=O)C(=O)O [Peptide 137] ; what IC50 value has been reported?
**Result** 3970

**Query** Suppose we examine the compound CC(C)C[C@H](NC(=O)[C@H](CCCNC(=N)N)NC(=O)[C@H](Cc1ccc(O)cc1)NC(=O)[C@H](Cc1ccccc1)NC(=O)[C@@H](N)CCCNC(=N)N)C(=O)N[C@@H](C)C(=O)N[C@@H](CC(N)=O)C(=O)N[C@@H](CCC(=O)O)C(=O)N[C@@H](CS)C(=O)N[C@@H](C)C(=O)N[C@@H](CCC(N)=O)C(=O)N[C@H](C(=O)N[C@@H](CC(C)C)C(=O)N[C@@H](CO)C(=O)N[C@@H](CCC(=O)O)C(=O)O)C(C)C ; what IC50 value has been reported?
**Result** 279

**Query** Suppose we examine the compound CC(C)C[C@H](NC(=O)[C@H](C)NC(=O)[C@H](CCCNC(=N)N)NC(=O)[C@@H](NC(=O)[C@H](CC(C)C)NC(=O)[C@@H](N)[C@@H](C)O)[C@@H](C)O)C(=O)N[C@H](C(=O)N[C@@H](C)C(=O)N[C@@H](CCC(=O)O)C(=O)N[C@@H](CO)C(=O)N[C@@H](Cc1c[nH]cn1)C(=O)N[C@H](C(=O)N[C@@H](CC(=O)O)C(=O)N[C@H](C(=O)N[C@@H](CC(=O)O)C(=O)O)[C@@H](C)O)C(C)C)[C@@H](C)O ; what IC50 value has been reported?
**Result** 14

**Query** Suppose we examine the compound CSCC[C@H](NC(=O)[C@H](CO)NC(=O)[C@H](Cc1ccccc1)NC(=O)[C@H](Cc1c[nH]cn1)NC(=O)[C@H](CCCCN)NC(=O)[C@H](CCCNC(=N)N)NC(=O)[C@H](CC(C)C)NC(=O)[C@H](Cc1ccc(O)cc1)NC(=O)[C@H](C)NC(=O)[C@H](Cc1ccc(O)cc1)NC(=O)[C@H](Cc1ccccc1)NC(=O)[C@H](CCC(=O)O)NC(=O)[C@H](CC(N)=O)NC(=O)[C@@H](NC(=O)[C@@H](N)Cc1ccccc1)C(C)C)C(=O)O ; what IC50 value has been reported?
**Result** 3830
